binding of OSCAR-ECD to collagen II with 10 µg/mL mAb values by entry
# targetOrSystem: T1, Human OSCAR-ECD (recombinant extracellular domain of human OSCAR) (human, UniProt Q8IYS5 19-218)
# T1 construct: also called OSACAR-ECD
# T1 chain: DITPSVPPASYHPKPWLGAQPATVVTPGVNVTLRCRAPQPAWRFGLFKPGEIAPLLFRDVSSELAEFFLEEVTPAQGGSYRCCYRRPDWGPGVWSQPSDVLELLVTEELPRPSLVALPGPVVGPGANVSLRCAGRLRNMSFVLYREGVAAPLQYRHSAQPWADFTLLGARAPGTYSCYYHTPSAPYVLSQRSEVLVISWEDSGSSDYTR
# experimentDescription: SPR competition, 50 nM OSCAR-ECD premixed with mAb, over immobilised collagen II
# Design: unit not given here
Write no unit; give the number alone.

binder	observedResult
7F1A1 (antibody, V domains shown, Mouse anti-human OSCAR mAb; The heavy chain entry covers only VH-CH1 and the start of the hinge) VH: QVQLQQSGAELVRPGTSVKVSCKASGYAFTNYMIEWVKKRPGQGLEWIGVINPGSGGTNYNEKFENKATLTADKSSSTAYMQLSSLTSDDSAVYFCARSLDFDGAWFAYWGQGTLVTVSA VL: DIQMTQSPASLSVSVGETVTITCRASEKIYSNLAWYQQKQGKSPQLLVYAATNLADGVPSRFSGSGSGTQFSLKINSLQPEDFGSYYCQHFWGIPWTFGGGTKLEIKR	335

Please look at the following binder next.
For record 7F21A1 (antibody, V domains shown, Mouse anti-human OSCAR mAb; The heavy chain entry covers only VH-CH1 and the start of the hinge) VH: QVQLQQSGAELVRPGTSVKVSCRSSGYAFTNYLIEWIKQRPGQGLEWIGVITPGSGGTNYNENFKDKATLTADKSSNTAYMQLTSLTSDDSAVYFCARSFDYDGAWFAYWGQGTLVTVSA VL: DIQMTQSPASLSVSVGETVTITCRASEKIYSNLAWYQQKQGKSPQLLVYAATNLADGVPSRFSGSGSGTQFSLKINNLQSEDFGSYYCQHFWGTPWTFGGGTKLEIKR the listed binding of OSCAR-ECD to collagen II with 10 µg/mL mAb is 319

Cited source for all entries: patent US20140056918A1
